Test system: NCI-H522 lung
Assay: NCI tumour cell line growth inhibition, 48 h
Measured Quantity: TGI (µM)
Entry rule: numbers only, all in µM.

Consider C/C=C(\N=C=S)C(=O)OC1C(COC(C)=O)OC([C@]2(O)CC(=O)C(=N)C(C(=O)O)=C2O)C(O)C1OC1CC(OC)C(O)([C@@H](C)OC(=O)[C@@H](C)CC)C(C)O1 (stereo not given in full) . Its measured TGI is 5.32

The compound listed as CN1CCN(c2cc3nc(-c4ccc(Cl)cc4)[nH]c3cc2F)CC1 has a reported TGI of 32

The compound listed as CNC(=O)ON(C(C)=O)C(=O)NC shows TGI equal to 73.5
